- Test Target: fMet-Leu-Phe receptor (Homo sapiens) (UniProt P21462)
- Assay Explanation: Agonist activity at FPR1 (unknown origin) transfected in human HL60 cells assessed as induction of Ca2+ mobilization relative to fMLF
- Format: functional, cell-based
- Condition Details: HL-60
Value Type: Efficacy (%)
Write the number in % without appending the unit.

Compound Structure | Test Target | Value Type | Observed Result
COc1ccc(Nc2c(C(C)=O)c(C)nn(CC(=O)Nc3ccc(Br)cc3)c2=O)cc1 | fMet-Leu-Phe receptor (Homo sapiens) (UniProt P21462) | Efficacy | 75

Which Efficacy reading was recorded for the compound `COc1cccc(Cc2ccnn(CC(=O)Nc3ccc(Br)cc3)c2=O)c1` ?
125

Which Efficacy reading was recorded for the compound `CCc1cc(Cc2cccc(OC)c2)c(=O)n(CC(=O)Nc2ccc(I)cc2)n1` ?
70

###

Overview of reported Efficacy across a group of compounds:
- Test Target: fMet-Leu-Phe receptor 1/2 (Homo sapiens) (UniProt P21462+P25090)
- Sequence (P25090 whole entry, looked up, one chain of several): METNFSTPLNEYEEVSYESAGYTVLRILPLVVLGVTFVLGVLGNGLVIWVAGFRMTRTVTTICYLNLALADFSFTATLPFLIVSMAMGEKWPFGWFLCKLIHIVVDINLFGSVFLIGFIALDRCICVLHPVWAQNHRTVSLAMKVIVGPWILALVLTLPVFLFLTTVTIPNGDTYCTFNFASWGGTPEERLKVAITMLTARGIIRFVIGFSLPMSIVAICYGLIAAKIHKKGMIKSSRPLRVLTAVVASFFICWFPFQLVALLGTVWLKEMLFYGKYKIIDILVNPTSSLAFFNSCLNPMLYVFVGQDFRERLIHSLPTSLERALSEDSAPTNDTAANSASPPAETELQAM
- Assay Explanation: Agonist activity at FPR1/FPR2 in human neutrophils assessed as induction of Ca2+ mobilization relative to fMLF
- Assay type: functional
Write the number in % without appending the unit.

Some compounds with known Efficacy results, for comparison:
Compound Structure | Efficacy (%)
Cc1cc(Cc2cccs2)c(=O)n(CC(=O)Nc2ccc(Br)cc2)n1 | 80
COc1cc(Cc2cc(C)nn(CC(=O)Nc3ccc(I)cc3)c2=O)cc(OC)c1 | 75
Cc1cc(Cc2cccc(Cl)c2)c(=O)n(CC(=O)Nc2ccc(I)cc2)n1 | 90
COc1cccc(C(=O)c2cc(C)nn(CC(=O)Nc3ccc(Br)cc3)c2=O)c1 | 115
CCc1cc(Cc2cccc(OC)c2)c(=O)n(CC(=O)Nc2ccc(I)cc2)n1 | 90

Which Efficacy reading was recorded for the compound `COc1ccc(Nc2cc(C)nn(CC(=O)Nc3ccc(Br)cc3)c2=O)cc1` ?
105

Which Efficacy reading was recorded for the compound `Cc1cc(Cc2cccc(F)c2)c(=O)n(CC(=O)Nc2ccc(Br)cc2)n1` ?
130

Which Efficacy reading was recorded for the compound `COc1cccc(Cc2cc(-c3ccccc3)nn(CC(=O)Nc3ccc(Br)cc3)c2=O)c1` ?
115

###

- Test Target: fMet-Leu-Phe receptor (Homo sapiens, UniProt P21462)
- Assay Explanation: Agonist activity at FPR1 (unknown origin) transfected in human HL60 cells assessed as induction of Ca2+ mobilization
pEC50: −log10 of the molar value.
Value Type: pEC50

Some compounds with known pEC50 results, for comparison:
Compound Structure | Observed Result
Cc1cc(Cc2ccc(C(N)=O)cc2)c(=O)n(CC(=O)Nc2ccc(Br)cc2)n1 | 4.53
Cc1ccc(=O)n(CC(=O)Nc2ccc(I)cc2)n1 | < 4.30

Please find the next compound below.
Which pEC50 reading was recorded for the compound `Cc1cc(Cc2ccc(C#N)cc2)c(=O)n(CC(=O)Nc2ccc(Br)cc2)n1` ?
< 4.30

###

- System: HL-60
- Assay Explanation: Cytotoxicity against human wild type HL60 cells at 5 to 20 uM after 60 mins by CellTitre-Glo luminescent assay
- Format: cell-based
- Condition Details: hl-60, 1 h
Value Type: Activity

Compound Structure | Value Type | Observed Result
COc1ccc(-c2cc(Cc3cccc(OC)c3)c(=O)n(CC(=O)Nc3ccc4c(c3)OCO4)n2)cc1 | Activity | Non-toxic
COc1cccc(Cc2cc(-c3ccccc3)nn(CC(=O)Nc3ccc4c(c3)OCO4)c2=O)c1 | Activity | Non-toxic
COc1ccc(Cc2cc(-c3cccs3)nn(CC(=O)Nc3ccc(Br)cc3)c2=O)cc1 | Activity | Non-toxic
COc1cccc(C(=O)Nc2cc(C)nn(CC(=O)Nc3ccc(Br)cc3)c2=O)c1 | Activity | Non-toxic
COc1cccc(Cc2cc(-c3ccc(F)cc3)nn(CC(=O)Nc3ccc(F)cc3)c2=O)c1 | Activity | Non-toxic

Which Activity reading was recorded for the compound `COc1ccc(Cc2cc(-c3ccc(C)cc3)nn(CC(=O)Nc3ccc(Br)cc3)c2=O)cc1` ?
Non-toxic

Which Activity reading was recorded for the compound `Cc1cc(Cc2cccc3ccccc23)c(=O)n(CC(=O)Nc2ccc(Br)cc2)n1` ?
Non-toxic

Which Activity reading was recorded for the compound `COc1ccc(-c2cc(C)nn(CC(=O)Nc3ccc(Br)cc3)c2=O)cc1` ?
Non-toxic

Which Activity reading was recorded for the compound `Cc1cc(Cc2ccc(C(F)(F)F)cc2)c(=O)n(CC(=O)Nc2ccc(Br)cc2)n1` ?
Non-toxic

###

- Test Target: fMet-Leu-Phe receptor (Homo sapiens)
- Assay Explanation: Agonist activity at FPR1 (unknown origin) transfected in human HL60 cells assessed as induction of Ca2+ mobilization relative to fMLF
- Assay type: functional, cell-based
- Condition Details: HL-60
Overview of reported Efficacy across a group of molecules:
Write the number in % without appending the unit.

Some molecules with known Efficacy results, for comparison:
Compound Structure | Efficacy (%)
COc1ccc(Nc2cc(C)nn(CC(=O)Nc3ccc(Br)cc3)c2=O)cc1 | 100
Cc1cc(Cc2ccoc2)c(=O)n(CC(=O)Nc2ccc(Br)cc2)n1 | 100
Cc1cc(Cc2cccnc2)c(=O)n(CC(=O)Nc2ccc(Br)cc2)n1 | 85
Cc1cc(Cc2cccc3ccccc23)c(=O)n(CC(=O)Nc2ccc(Br)cc2)n1 | 20

Which Efficacy reading was recorded for the molecule `Cc1cc(Cc2ccc(C(N)=O)cc2)c(=O)n(CC(=O)Nc2ccc(Br)cc2)n1` ?
40

Which Efficacy reading was recorded for the molecule `Cc1cc(Cc2ccsc2)c(=O)n(CC(=O)Nc2ccc(Br)cc2)n1` ?
100

Which Efficacy reading was recorded for the molecule `Cc1cc(Cc2ccccc2)c(=O)n(CC(=O)Nc2ccc3c(c2)OCO3)n1` ?
55

Which Efficacy reading was recorded for the molecule `COc1cccc(Cc2cc(C(C)C)nn(CC(=O)Nc3ccc(Br)cc3)c2=O)c1` ?
135

Which Efficacy reading was recorded for the molecule `COc1cccc(C(=O)c2cc(C)nn(CC(=O)Nc3ccc(Br)cc3)c2=O)c1` ?
140

Which Efficacy reading was recorded for the molecule `COc1cccc(C(=O)Nc2cc(C)nn(CC(=O)Nc3ccc(Br)cc3)c2=O)c1` ?
120

###

- Test Target: fMet-Leu-Phe receptor (Homo sapiens) (UniProt P21462)
- Sequence (whole entry): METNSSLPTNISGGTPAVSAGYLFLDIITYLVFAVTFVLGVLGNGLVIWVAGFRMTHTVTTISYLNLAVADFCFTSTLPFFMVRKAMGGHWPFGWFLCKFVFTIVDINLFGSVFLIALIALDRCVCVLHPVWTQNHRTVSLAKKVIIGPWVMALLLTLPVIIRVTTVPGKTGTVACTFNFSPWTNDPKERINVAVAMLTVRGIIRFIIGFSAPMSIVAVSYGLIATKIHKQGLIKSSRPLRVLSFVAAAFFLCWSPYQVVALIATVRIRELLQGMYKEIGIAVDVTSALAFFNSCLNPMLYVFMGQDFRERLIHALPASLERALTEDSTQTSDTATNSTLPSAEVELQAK
- Assay Explanation: Agonist activity at FPR1 (unknown origin) transfected in human HL60 cells assessed as induction of Ca2+ mobilization relative to fMLF
- Format: functional, cell-based
- Condition Details: HL-60
Use 60% as the dividing line for Efficacy, with the line itself on the Met side and lower values as Not met.

These solved cases illustrate the format of a correct answer.
Compound Structure | Test Target | Class Label
Cc1cc(Cc2cccs2)c(=O)n(CC(=O)Nc2ccc(Br)cc2)n1 | fMet-Leu-Phe receptor (Homo sapiens) (UniProt P21462) | Met
Cc1cc(N)c(=O)n(CC(=O)Nc2ccc(Br)cc2)n1 | fMet-Leu-Phe receptor (Homo sapiens) (UniProt P21462) | Met
COc1ccc(-c2cc(C)nn(CC(=O)Nc3ccc(Br)cc3)c2=O)cc1 | fMet-Leu-Phe receptor (Homo sapiens) (UniProt P21462) | Not met
Cc1cc(Cc2cccc(Cl)c2)c(=O)n(CC(=O)Nc2ccc(I)cc2)n1 | fMet-Leu-Phe receptor (Homo sapiens) (UniProt P21462) | Not met
Cc1cc(Cc2cccc(F)c2)c(=O)n(CC(=O)Nc2ccc(Br)cc2)n1 | fMet-Leu-Phe receptor (Homo sapiens) (UniProt P21462) | Met
Cc1cc(Cc2ccccc2)c(=O)n(CC(=O)Nc2ccc(Br)cc2)n1 | fMet-Leu-Phe receptor (Homo sapiens) (UniProt P21462) | Not met

Please find the next compound below.
// inclusive: Efficacy at least 60%? input: `COc1cccc(Cc2cc(-c3ccccc3)nn(CC(=O)Nc3ccc(Br)cc3)c2=O)c1`
Met
